Species on record: Mus musculus
Test: Tested for antagonism of nicotine-induced death (D) in mice
Type: functional
quantity: ED50 (mg/kg)
Just the number in mg/kg, nothing appended.

Known results for molecules:
# molecule, ED50 (mg/kg)
rows = [
    ("CNC(C)c1nnc2n1-c1ccc(Cl)cc1C(c1ccccc1)=NC2 (stereo unspecified)", 1),
    ("C#CCN(C)Cc1nnc2n1-c1ccc(Cl)cc1C(c1ccccc1Cl)=NC2", 0.045),
    ("CC(N)c1nnc2n1-c1ccc(Cl)cc1C(c1ccccc1Cl)=NC2 (stereo unspecified)", 0.025),
]

Exercise: What does the data say about its ED50? Entry: "Clc1ccc2c(c1)C(c1ccccc1)=NCc1nnc(CCCN3CCCC3)n1-2"
Solution: 16

Exercise: What does the data say about its ED50? Entry: "CCN(CC)CCCc1nnc2n1-c1ccc(Cl)cc1C(c1ccccc1)=NC2"
Solution: 13

Exercise: What does the data say about its ED50? Entry: "CNCc1nnc2n1-c1ccc(Cl)cc1C(c1ccccc1)=NC2"
Solution: 0.18
